Reported pIC50 by item:
Target: SHP2^E76A protein (Homo sapiens (Human), UniProt Q06124, E76A)
Sequence (Q06124 whole entry E76A): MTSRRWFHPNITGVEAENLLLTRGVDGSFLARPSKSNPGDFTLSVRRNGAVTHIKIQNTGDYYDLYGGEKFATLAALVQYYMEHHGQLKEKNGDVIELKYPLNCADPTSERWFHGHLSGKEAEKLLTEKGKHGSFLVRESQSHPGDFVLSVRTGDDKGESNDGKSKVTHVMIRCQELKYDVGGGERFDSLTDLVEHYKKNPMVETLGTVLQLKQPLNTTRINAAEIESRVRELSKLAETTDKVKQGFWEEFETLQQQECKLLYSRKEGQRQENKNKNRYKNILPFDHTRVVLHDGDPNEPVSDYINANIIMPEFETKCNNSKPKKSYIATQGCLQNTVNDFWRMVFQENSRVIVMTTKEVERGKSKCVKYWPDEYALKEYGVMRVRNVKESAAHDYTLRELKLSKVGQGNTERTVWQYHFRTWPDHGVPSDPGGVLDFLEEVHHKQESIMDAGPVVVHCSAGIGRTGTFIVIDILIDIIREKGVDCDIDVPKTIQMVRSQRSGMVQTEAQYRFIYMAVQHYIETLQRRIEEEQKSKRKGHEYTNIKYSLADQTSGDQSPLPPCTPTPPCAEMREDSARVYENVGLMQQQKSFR
Assay: SHP2 enzyme activity inhibition experiment
Format: biochemical
Details: SHP2 enzyme activity, Tables 1.1 and 1.2; read-out: IC50
pIC50: −log10 of the molar value.

-- ask Returns the measured pIC50 for the input molecule. Input: Nc1ccc(Sc2cnc(N3CCC4(CCC[C@H]4N)CC3)n3cnnc23)cc1
-- reply 5.00 to 6.00

-- ask Same read-out for Cc1nccc(Sc2cnc(N3CCC4(CCC[C@H]4N)CC3)n3ccnc23)c1Cl ?
-- reply > 7.00

-- ask Same read-out for Nc1cc(Sc2cnc(N3CCC4(CCC[C@H]4N)CC3)n3cnnc23)c(Cl)c(Cl)n1 ?
-- reply > 7.00

-- ask Same read-out for NC1CC2(CCN(c3ncc(Sc4cccc(Cl)c4Cl)c4nccn34)CC2)C1 ?
-- reply 6.00 to 7.00

-- ask Same read-out for N[C@@H]1CCCC12CCN(c1ncc(Sc3ccc(Cl)cc3Cl)c3nccn13)CC2 ?
-- reply 6.00 to 7.00

-- ask Same read-out for Nc1ccc(Sc2cnc(N3CCC4(CCC[C@H]4N)CC3)n3ncnc23)cc1 ?
-- reply 5.00 to 6.00

-- ask Same read-out for CN(C)c1nccc(Sc2cnc(N3CCC4(CCC[C@H]4N)CC3)n3ccnc23)c1Cl ?
-- reply > 7.00

-- ask Same read-out for CC1(N)CCN(c2ncc(Sc3ccnc(N)c3Cl)c3nncn23)CC1 ?
-- reply 6.00 to 7.00

-- ask Same read-out for Cc1nc(N)cc(Sc2cnc(N3CCC4(CCC[C@H]4N)CC3)n3ccnc23)c1Cl ?
-- reply > 7.00

-- ask Same read-out for CN(C)C(=O)C(=O)Nc1cccc(Sc2cnc(N3CCC4(CCC[C@H]4N)CC3)n3ccnc23)c1Cl ?
-- reply 6.00 to 7.00

-- ask Same read-out for CN(C)c1nccc(Sc2cnc(N3CCC4(CCC[C@H]4N)CC3)n3cnnc23)c1Cl ?
-- reply 6.00 to 7.00

-- ask Same read-out for Nc1cccc(Sc2cnc(N3CCC4(CCC[C@H]4N)CC3)n3ccnc23)c1Cl ?
-- reply 6.00 to 7.00

-- ask Same read-out for N[C@@H]1CCCN(c2ncc(Sc3cccc(Cl)c3Cl)c3nncn23)CC1 ?
-- reply 6.00 to 7.00
